Can you tell me N1 % Inhibition @40 µg/ml, BT474 cell proliferation for the items I'm about to list?
- Target system: human ErbB2, full length, on cells (human, UniProt P04626 23-1255)
- Protocol text: cell-based or functional assay
Give bare numbers, in %.

monoclonal antibody 1.20 (antibody, V domains shown, Fully human IgG (gamma/kappa) from a XenoMouse XM3B-3 hybridoma; constant regions not tied to it; also called 1.20.1; 1.19) VH: EVQLVESGGGLVKPGGSLRLSCAASGFTFSSYTMNWVRQAPGKGLEWVSSISSSSSYIYYADSVKGRFTISRDNAKNSLYLQMNSLSAEDTAVYSCARGGDGYNYYYFDYWGQGTLVTVSS VL: DIVMTQSPGSLVVSLGERATITCKSSQSVFFRSNNKNCLAWYQQRPGQSPNLLIYWASTRESGVPDRFSGSGSGTDFTLTISSLQAEDVAVYYCQQYFGSPFTFGPGTKVDIK
40

Could I get N1 % Inhibition @40 µg/ml, BT474 cell proliferation for every one of these entries?
1. monoclonal antibody 1.14.1 (antibody, V domains shown, Fully human IgG (gamma/kappa) from a XenoMouse XM3B-3 hybridoma; constant regions not tied to it) VH: EVQLVESGGGLVKPGGSLRLSCAASGFTFSSYSMNWVRQAPGKGLEWVSSISSSSSYIYYADSVKGRFTISRDNAKNSLYLQMNSLRAEDTAVYYCARGGDGYNYYYFDYWGQGTLVTVSS VL: DIVMTQSPDSLAVSLGERATITCKSSQSVFFRSNNKNCLTWYQQRPGQPPNLLIYWASTRESGVPDRFSGSGSGTDFTLTINNLQAEDVAVYYCQQYFGSPFTFGPGTKVDIK
2. monoclonal antibody 1.100.1 (antibody, V domains shown, Fully human IgG (gamma/kappa) from a XenoMouse XM3B-3 hybridoma; constant regions not tied to it; also called 1.100.2; 1.100.3) VH: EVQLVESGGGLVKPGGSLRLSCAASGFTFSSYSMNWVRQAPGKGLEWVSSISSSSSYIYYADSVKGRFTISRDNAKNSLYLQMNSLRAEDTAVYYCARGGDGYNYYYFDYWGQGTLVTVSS VL: DIVMTQSPDSLAVSLGERATITCKSSQSVFFRSNNKNCLAWYQQRPGQPPNLLIYWASTRESGVPDRFSGSGCGTDFTLTISSLQAEDVAVYYCQQYFGSPFTFGPGTKVDIK
3. monoclonal antibody 1.39 (antibody, V domains shown, Fully human IgG (gamma/kappa) from a XenoMouse XM3B-3 hybridoma; constant regions not tied to it; also called 1.39.1; 1.39.2) VH: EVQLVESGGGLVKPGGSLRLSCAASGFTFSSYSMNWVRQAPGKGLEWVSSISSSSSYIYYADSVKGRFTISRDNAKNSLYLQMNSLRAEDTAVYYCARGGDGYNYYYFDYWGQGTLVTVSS VL: DIVMTQSPDSLAVSLGERATITCKSSQSVFFRSNNKNCLAWYQQRPGQPPNLLIYWASSRESGVPDRFSGSGSGTDFALTISSLQTEDVAVYYCQQYFGSPFTFGPGTKVDIK

RESULT:
38
35
29
